Taken from patent US8901120B2.

- experimentNotes: Pharmacokinetics after oral dosing
- Type: in vivo
- details: mouse, mice, 50 mg/kg orally, plasma
experimentalReadout: Tmax
Answer with the value and then the unit.

Ask | Param item = `CN1CCN(Cc2ccc(Nc3ncc(Cl)c(Nc4ccccc4S(=O)(=O)N(C)C)n3)cc2)CC1` ; retrieve measured Tmax.
Reply | 15 min

====

- assaySystem: recombinant human Axl kinase (catalytic domain, amino acids 473-894) (Homo sapiens, UniProt P30530)
- Construct: catalytic domain, amino acids 473-894; purchased Invitrogen Corporation, Carlsbad, Calif
- Sequence (P30530 473-894): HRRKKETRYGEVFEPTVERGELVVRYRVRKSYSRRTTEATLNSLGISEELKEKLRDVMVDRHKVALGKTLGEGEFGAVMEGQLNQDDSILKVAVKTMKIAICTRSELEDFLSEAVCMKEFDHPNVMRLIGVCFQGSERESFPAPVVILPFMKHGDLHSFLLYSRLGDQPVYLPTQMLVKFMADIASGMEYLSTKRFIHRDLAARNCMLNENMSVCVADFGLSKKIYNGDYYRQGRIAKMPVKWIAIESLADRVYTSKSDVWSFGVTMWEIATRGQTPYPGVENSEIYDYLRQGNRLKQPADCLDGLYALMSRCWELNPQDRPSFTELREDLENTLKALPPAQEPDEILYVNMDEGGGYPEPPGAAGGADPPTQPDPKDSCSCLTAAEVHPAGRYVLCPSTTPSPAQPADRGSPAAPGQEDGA
- experimentNotes: Axl kinase activity assay (TR-FRET, fluorescein poly-GT substrate)
- Assay type: biochemical
- details: 20 μM ATP, 93 ng/ml Axl kinase, 60 min; read-out: IC50 (Axl kinase activity)
experimentalReadout: pIC50
Numbers only, as −log10 of the molar value.

Below are worked cases with known answers.
COc1cccc(-c2nc(Nc3ccc(CN4CCN(C)CC4)cc3)ncc2C)c1 [Compound 19]: 5.79
CN1CCN(Cc2ccc(Nc3ncc(Cl)c(Nc4ccc(O)cc4S(=O)(=O)N4CCCC4)n3)cc2)CC1 [Compound 17]: 5.88
Cc1cnc(Nc2ccc(CN3CCN(C)CC3)cc2)nc1Nc1ccc(F)c(Cl)c1 [Compound 30]: 4.20
CC(=O)Nc1cccc(-c2nc(Nc3ccc(CN4CCN(C)CC4)cc3)ncc2C)c1 [Compound 22]: 5.64
CN1CCN(Cc2ccc(Nc3ncc(Cl)c(N(C)c4ccc(F)cc4S(=O)(=O)N4CCCC4)n3)cc2)CC1 [Compound 27]: 5.41
Cc1cnc(Nc2ccc(CN3CCN(C)CC3)cc2)nc1-c1cccc(OC(F)(F)F)c1 [Compound 25]: 5.48
Cc1cnc(Nc2ccc(CN3CCN(C)CC3)cc2)nc1-c1cc(Cl)cc(C(F)(F)F)c1 [Compound 28]: 5.29
CN1CCN(Cc2ccc(Nc3ncc(C4CC4)c(-c4ccc(F)c(Cl)c4)n3)cc2)CC1 [Compound 26]: 5.47

Parameters: items (list). Returns: pIC50 for each item.
1. Cc1cnc(Nc2ccc(CN3CCN(C)CC3)cc2)nc1-c1ccc(F)cc1 [Compound 21]
2. Cc1cnc(Nc2ccc(CN3CCN(C)CC3)cc2)nc1Oc1ccc(F)c(Cl)c1 [Compound 18]
3. CN1CCN(Cc2ccc(Nc3ncc(Cl)c(Nc4ccccc4S(=O)(=O)N4CCCC4)n3)cc2)CC1 [Compound 1]
4. Cc1cnc(Nc2ccc(CN3CCN(C)CC3)cc2)nc1-c1ccc(F)c(Cl)c1 [Compound 14]

Reply |
[5.73, 5.85, 7.70, 6.14]
